Where these numbers come from: patent US7863279B2

READOUT LABEL: melting point

Supply reported melting point belonging to this compound: O=C(N1CCN(c2cccc(C(F)(F)F)c2)CC1)n1nnc2ccc(-c3ccc(Cl)cc3)nc21 [Compound No. 3]
139 to 141 °C

Supply reported melting point belonging to this compound: O=C(N1CCN(c2cccc(C(F)(F)F)c2)CC1)n1nnc2ccc(-c3ccc4ccccc4c3)nc21 [compound 6]
90 to 92 °C

Supply reported melting point belonging to this compound: O=C(N1CCN(c2cccc(C(F)(F)F)c2)CC1)n1nnc2ccc(-c3ccoc3)nc21 [compound 4]
68 to 70 °C

Supply reported melting point belonging to this compound: O=C(N1CCN(c2cccc(C(F)(F)F)c2)CC1)n1nnc2ccc(-c3ccccc3Cl)nc21 [compound 1]
69 to 71 °C

Supply reported melting point belonging to this compound: O=C(N1CCN(c2cccc(C(F)(F)F)c2)CC1)n1nnc2ccc(-c3ccsc3)nc21 [compound 5]
93 to 95 °C

Supply reported melting point belonging to this compound: O=C(N1CCN(c2cccc(C(F)(F)F)c2)CC1)n1nnc2ccc(-c3cccc(Cl)c3)nc21 [compound 2]
102 to 104 °C
